molecular target: ΔCcMreBdh (Caulobacter vibrioides, UniProt A0A0H3C7V4, F102S/V103G); construct: added initiator Met (M before I9) (N); made in house; host or cells: E. coli C41(DE3) (printed for the sister construct ΔCcMreBh); assay: Isothermal titration calorimetry of nucleotides and MP265 binding to MreB; set-up: species or system Caulobacter crescentus; conditions: ITC, 15°C, ΔCcMreBdh alone, data not shown; read-out: affinity (Kd)
Sequence (A0A0H3C7V4 9-347 F102S/V103G): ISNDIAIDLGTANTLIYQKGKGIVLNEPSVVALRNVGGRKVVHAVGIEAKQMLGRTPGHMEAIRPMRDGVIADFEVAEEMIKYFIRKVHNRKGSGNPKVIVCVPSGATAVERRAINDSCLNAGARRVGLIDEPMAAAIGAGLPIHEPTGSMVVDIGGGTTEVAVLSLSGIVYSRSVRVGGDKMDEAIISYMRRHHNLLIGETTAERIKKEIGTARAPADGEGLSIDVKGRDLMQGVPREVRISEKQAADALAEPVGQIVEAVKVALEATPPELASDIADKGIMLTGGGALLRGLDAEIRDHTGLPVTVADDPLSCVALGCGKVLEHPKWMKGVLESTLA
RECORDED_ENDPOINT: Kd (µM)

compound="N=C(N)SCc1ccc(Cl)cc1 [MP265]" tested_system="ΔCcMreBdh (Caulobacter vibrioides, UniProt A0A0H3C7V4, F102S/V103G)" recorded_endpoint=Kd readout_units=µM value_observed=19

----------
target: ΔCcMreBdh (Caulobacter vibrioides, UniProt A0A0H3C7V4, F102S/V103G); construct: added initiator Met (M before I9) (N); made in house; host or cells: E. coli C41(DE3) (printed for the sister construct ΔCcMreBh); assay: Isothermal titration calorimetry of nucleotides and MP265 binding to MreB; design: species or system Caulobacter crescentus; conditions: ITC, 15°C, in the presence of 0.5 mM AMPPNP, data not shown; read-out: affinity (Kd)
pKd: −log10 of the molar value.
RECORDED_ENDPOINT: pKd

compound="N=C(N)SCc1ccc(Cl)cc1 [MP265]" tested_system="ΔCcMreBdh (Caulobacter vibrioides, UniProt A0A0H3C7V4, F102S/V103G)" value_observed=6.15
